Test system: 857933-349-R-J2-PDC complex spheroid viability
Assay: Anticancer human tumor 857933-349-R-J2-PDC patient-derived colon adenocarcinoma cell line growth inhibition [POLQ]
Details: second compound 1 µM; first compound 0.0316 µM; stronger effect = lower value
In plain terms, low viability, T/C, meaning strictly below 90%, gives Fulfilled, and everything else gives Not fulfilled.

molecule	cat
CC[C@@]1(O)C(=O)OCc2c1cc1n(c2=O)Cc2cc3c(CN(C)C)c(O)ccc3nc2-1 + COC1C(OC(N)=O)C(O)C(Oc2ccc3c(O)c(NC(=O)c4ccc(O)c(CC=C(C)C)c4)c(=O)oc3c2C)OC1(C)C	Fulfilled
COc1ccc([C@@H](O)c2cc(-c3ncnc4cc(N5CCOCC5)ccc34)c(F)cc2Cl)nn1 + Nc1ccc(C#CCN(C(=O)Cc2ncc(C(F)(F)F)cc2C(F)(F)F)c2ccc(F)cc2)nn1	Not fulfilled
Cn1ncnc1[C@H]1c2n[nH]c(=O)c3cc(F)cc(c23)N[C@@H]1c1ccc(F)cc1 + Nc1ccc(C#CCN(C(=O)Cc2ncc(C(F)(F)F)cc2C(F)(F)F)c2ccc(F)cc2)nn1	Not fulfilled
CC(C)n1c(=O)n(C)c2cnc3cc(F)c(-c4ccc(OCCCN5CCCCC5)nc4)cc3c21 + Nc1ccc(C#CCN(C(=O)Cc2ncc(C(F)(F)F)cc2C(F)(F)F)c2ccc(F)cc2)nn1	Not fulfilled
O=c1[nH]cc(F)c(=O)[nH]1 + COC1C(OC(N)=O)C(O)C(Oc2ccc3c(O)c(NC(=O)c4ccc(O)c(CC=C(C)C)c4)c(=O)oc3c2C)OC1(C)C	Not fulfilled

---

viability, T/C overview
Test system: 857933-349-R-J2-PDC complex spheroid viability
Assay: Anticancer human tumor 857933-349-R-J2-PDC cell line growth inhibition [POLQ];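 also: spheroids exposed to compounds for seven days before readout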
Conditions: second compound 1 µM; first compound 10 µM; stronger effect = lower value

compound	study-target	result-units	viability, T/C
O=C(c1cc(Cc2n[nH]c(=O)c3ccccc23)ccc1F)N1CCN(C(=O)C2CC2)CC1 + COC1C(OC(N)=O)C(O)C(Oc2ccc3c(O)c(NC(=O)c4ccc(O)c(CC=C(C)C)c4)c(=O)oc3c2C)OC1(C)C	857933-349-R-J2-PDC complex spheroid viability	%	104
O=C(Nc1ccc(O)c(NS(=O)(=O)c2ccc(F)cc2)c1)c1ccc(-c2ccccc2)cc1 + Nc1ccc(C#CCN(C(=O)Cc2ncc(C(F)(F)F)cc2C(F)(F)F)c2ccc(F)cc2)nn1	857933-349-R-J2-PDC complex spheroid viability	%	94.2
C=CC(=O)N1CCN(c2nc(=O)n(-c3c(C)ccnc3C(C)C)c3nc(-c4c(O)cccc4F)c(F)cc23)C(C)C1 (stereo not given) + Nc1ccc(C#CCN(C(=O)Cc2ncc(C(F)(F)F)cc2C(F)(F)F)c2ccc(F)cc2)nn1	857933-349-R-J2-PDC complex spheroid viability	%	97.2
CCc1cc2c(N3CCc4c(cc(Cn5ccnc5)cc4-c4cn(C)nc4C(F)(F)F)C3=O)ccnc2c(OC)n1 + COC1C(OC(N)=O)C(O)C(Oc2ccc3c(O)c(NC(=O)c4ccc(O)c(CC=C(C)C)c4)c(=O)oc3c2C)OC1(C)C	857933-349-R-J2-PDC complex spheroid viability	%	59.5
O=C(Nc1ccc(O)c(NS(=O)(=O)c2ccc(F)cc2)c1)c1ccc(-c2ccccc2)cc1 + Cc1cccc(N(C)C(=O)C2C(O)CCN2c2nc(C)cc(C(F)(F)F)c2C#N)c1	857933-349-R-J2-PDC complex spheroid viability	%	93
